Measured IC50, listed per entry for reference.
# test system: Recombinant human integrin αvβ5 (Homo sapiens, UniProt P06756+P18084)
# Sequence (P18084 24-719 limits assumed, one chain of several): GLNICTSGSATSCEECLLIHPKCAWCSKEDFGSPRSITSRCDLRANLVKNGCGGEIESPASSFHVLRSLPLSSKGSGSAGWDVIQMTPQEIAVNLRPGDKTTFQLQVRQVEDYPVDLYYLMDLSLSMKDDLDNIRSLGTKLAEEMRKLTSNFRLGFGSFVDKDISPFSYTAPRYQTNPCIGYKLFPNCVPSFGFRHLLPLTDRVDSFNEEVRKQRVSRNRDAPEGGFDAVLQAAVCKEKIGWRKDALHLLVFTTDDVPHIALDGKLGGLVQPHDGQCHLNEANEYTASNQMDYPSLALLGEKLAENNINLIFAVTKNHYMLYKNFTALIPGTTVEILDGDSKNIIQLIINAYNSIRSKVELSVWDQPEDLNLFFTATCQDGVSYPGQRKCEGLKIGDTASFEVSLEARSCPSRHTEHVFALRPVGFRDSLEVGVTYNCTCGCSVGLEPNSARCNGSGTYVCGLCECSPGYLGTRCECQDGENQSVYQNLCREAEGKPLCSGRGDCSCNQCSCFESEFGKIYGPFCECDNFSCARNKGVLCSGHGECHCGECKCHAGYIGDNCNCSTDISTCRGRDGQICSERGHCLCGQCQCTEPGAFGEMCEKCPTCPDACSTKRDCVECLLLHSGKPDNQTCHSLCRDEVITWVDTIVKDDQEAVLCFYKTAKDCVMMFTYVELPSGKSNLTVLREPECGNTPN
# assay notes: Solid Phase Receptor Assay for αvβ5 Function
# condition set: binding to vitronectin-coated plate; read-out: αvβ5 SPRA IC50
Field note: include the unit after the figure.

Solved entries (count: 4):
| compound | recorded value |
| --- | --- |
| COCC1(c2cc(Cl)cc([C@H](CC(=O)O)NC(=O)CNC(=O)c3cc(O)cc(NC4=NCC(O)CN4)c3)c2)CCOCC1 (stereo partly drawn) | 0.6 nM |
| CC(C)(C)c1cc(Br)c(O)c([C@H](CC(=O)O)NC(=O)CNC(=O)c2cc(O)cc(NC3=NCC(O)CN3)c2)c1 (stereo partly drawn) | 47 nM |
| N#CC1(c2cc(Cl)cc([C@H](CC(=O)O)NC(=O)CNC(=O)c3cc(O)cc(NC4=NCC(O)CN4)c3)c2)CCC1 (stereo partly drawn) | 0.4 nM |
| CC(O)(c1cc([C@H](CC(=O)O)NC(=O)CNC(=O)c2cc(O)cc(NC3=NCC(O)CN3)c2)cc(C(F)(F)F)c1)C(F)(F)F (stereo partly drawn) | 1.3 nM |

Answer with the recorded IC50 for the compound listed here: CC(C)(C)c1cc(-c2cncnc2)cc([C@H](CC(=O)O)NC(=O)CNC(=O)c2cc(O)cc(NC3=NCC(O)CN3)c2)c1 (stereo partly drawn)
21 nM

Identify measured IC50 corresponding to `CC(C)(C)c1cc(Br)cc([C@H](CC(=O)O)NC(=O)CNC(=O)c2cc(O)cc(NC3=NCCN3)c2)c1`
1.2 nM

* * *

Listing of entries alongside the reported IC50.
# test system: Recombinant human integrin αvβ6 (Homo sapiens, UniProt P06756+P18564)
# Sequence (P06756 31-992 limits assumed): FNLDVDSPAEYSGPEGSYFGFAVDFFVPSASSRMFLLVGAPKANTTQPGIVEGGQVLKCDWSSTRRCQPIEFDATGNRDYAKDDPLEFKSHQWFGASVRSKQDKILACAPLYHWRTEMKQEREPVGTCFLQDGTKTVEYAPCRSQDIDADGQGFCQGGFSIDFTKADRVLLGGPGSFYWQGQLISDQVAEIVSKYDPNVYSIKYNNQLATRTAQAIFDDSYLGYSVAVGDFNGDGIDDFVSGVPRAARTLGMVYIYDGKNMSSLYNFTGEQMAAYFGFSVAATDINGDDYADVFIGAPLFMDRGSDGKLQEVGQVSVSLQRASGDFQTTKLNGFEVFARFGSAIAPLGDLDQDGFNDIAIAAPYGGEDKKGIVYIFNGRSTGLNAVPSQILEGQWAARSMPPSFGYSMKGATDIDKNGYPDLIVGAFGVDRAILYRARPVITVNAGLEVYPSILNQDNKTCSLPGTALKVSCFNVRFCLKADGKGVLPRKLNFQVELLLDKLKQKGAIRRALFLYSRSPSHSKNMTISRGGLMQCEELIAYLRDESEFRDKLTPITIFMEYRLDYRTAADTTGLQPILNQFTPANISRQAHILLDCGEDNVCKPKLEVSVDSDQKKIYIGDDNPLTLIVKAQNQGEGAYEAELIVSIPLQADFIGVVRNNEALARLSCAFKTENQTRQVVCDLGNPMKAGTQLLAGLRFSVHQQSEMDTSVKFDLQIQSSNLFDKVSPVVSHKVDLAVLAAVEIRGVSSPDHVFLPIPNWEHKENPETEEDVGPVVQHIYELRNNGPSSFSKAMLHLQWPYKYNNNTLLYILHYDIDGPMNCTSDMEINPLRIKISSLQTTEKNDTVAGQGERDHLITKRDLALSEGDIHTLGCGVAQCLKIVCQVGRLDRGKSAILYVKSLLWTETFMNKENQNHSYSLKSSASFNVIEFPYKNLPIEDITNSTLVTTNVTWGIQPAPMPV
# Sequence (P18564 22-707 limits assumed): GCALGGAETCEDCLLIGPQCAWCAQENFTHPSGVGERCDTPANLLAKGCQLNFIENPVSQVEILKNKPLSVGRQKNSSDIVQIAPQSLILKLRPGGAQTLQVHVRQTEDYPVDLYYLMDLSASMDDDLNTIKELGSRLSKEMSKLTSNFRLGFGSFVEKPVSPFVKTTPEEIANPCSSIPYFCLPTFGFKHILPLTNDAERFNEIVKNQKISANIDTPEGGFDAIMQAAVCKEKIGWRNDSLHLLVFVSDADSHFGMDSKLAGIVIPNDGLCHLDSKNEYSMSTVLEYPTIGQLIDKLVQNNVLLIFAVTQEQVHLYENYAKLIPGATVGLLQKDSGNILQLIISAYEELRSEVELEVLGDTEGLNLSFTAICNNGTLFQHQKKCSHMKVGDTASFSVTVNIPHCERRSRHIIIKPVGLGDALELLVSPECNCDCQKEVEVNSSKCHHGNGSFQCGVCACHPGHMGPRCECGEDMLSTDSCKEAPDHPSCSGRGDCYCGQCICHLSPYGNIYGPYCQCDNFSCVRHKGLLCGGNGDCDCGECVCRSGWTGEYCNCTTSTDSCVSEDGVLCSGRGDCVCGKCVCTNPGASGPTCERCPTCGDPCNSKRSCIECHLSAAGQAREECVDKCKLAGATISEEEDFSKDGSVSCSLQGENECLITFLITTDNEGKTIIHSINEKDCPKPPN
# assay notes: Solid Phase Receptor Assay for αvβ6 Function
# condition set: binding to LAP-coated plate; read-out: αvβ6 SPRA IC50
Numeric only. Scale: nM

Look over these answered cases.
| compound | measurement unit | IC50 |
| --- | --- | --- |
| CC(C)(C)c1cc(Br)cc([C@H](CC(=O)O)NC(=O)CNC(=O)c2cccc(NC(=N)N)c2)c1 [Example 5] | nM | 0.6 |
| CC(O)(c1cc([C@H](CC(=O)O)NC(=O)CNC(=O)c2cc(O)cc(NC3=NCC(O)CN3)c2)cc(C(F)(F)F)c1)C(F)(F)F (stereo partly drawn) [Example 25] | nM | 0.4 |
| CC(C)(O)c1cc([C@H](CC(=O)O)NC(=O)CNC(=O)c2cc(O)cc(NC3=NCC(O)CN3)c2)cc(C(F)(F)F)c1 (stereo partly drawn) [Example 13] | nM | 0.6 |
| O=C(O)C[C@H](NC(=O)CNC(=O)c1cc(O)cc(NC2=NCC(O)CN2)c1)c1cc(Br)cc(C2(C(F)F)CC2)c1 (stereo partly drawn) [Example 26] | nM | 0.1 |
| CC(C)(C)c1cc(Br)cc([C@H](CC(=O)O)NC(=O)CNC(=O)c2cc(O)cc(NC3=NCC(O)CN3)c2)c1O (stereo partly drawn) [Example 2] | nM | 0.7 |

Please tell me the measured IC50 for N#CC1(c2cc(Cl)cc([C@H](CC(=O)O)NC(=O)CNC(=O)c3cc(O)cc(NC4=NCC(O)CN4)c3)c2)CCOCC1 (stereo partly drawn) [Example 22] ; system: Recombinant human integrin αvβ6 (Homo sapiens, UniProt P06756+P18564).
0.3

Please tell me the measured IC50 for CC(C)(C)c1cc(Br)cc([C@H](CC(=O)O)NC(=O)CNC(=O)c2cc(O)cc(NC3=NCCN3)c2)c1 [Example 9] ; system: Recombinant human integrin αvβ6 (Homo sapiens, UniProt P06756+P18564).
0.5

The reported numbers originate from patent US9085606B2.
